# target: T1, ECF02_2817
# T1 chain: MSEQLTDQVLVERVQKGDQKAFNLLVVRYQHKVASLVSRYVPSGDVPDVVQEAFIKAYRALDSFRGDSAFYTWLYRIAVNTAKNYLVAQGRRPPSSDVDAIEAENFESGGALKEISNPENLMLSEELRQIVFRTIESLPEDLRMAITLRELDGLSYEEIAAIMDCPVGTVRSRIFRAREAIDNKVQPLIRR
Note to self: use label 1 only for fold repression readings below 3; a reading exactly at 3 still gets label 0.

Worked examples, 4 binders total:
binder	label-value
AS31_34 (protein) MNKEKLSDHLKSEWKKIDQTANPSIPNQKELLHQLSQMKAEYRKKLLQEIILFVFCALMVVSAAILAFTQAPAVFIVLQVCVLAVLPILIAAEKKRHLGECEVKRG	label 1
AS33_423 (protein) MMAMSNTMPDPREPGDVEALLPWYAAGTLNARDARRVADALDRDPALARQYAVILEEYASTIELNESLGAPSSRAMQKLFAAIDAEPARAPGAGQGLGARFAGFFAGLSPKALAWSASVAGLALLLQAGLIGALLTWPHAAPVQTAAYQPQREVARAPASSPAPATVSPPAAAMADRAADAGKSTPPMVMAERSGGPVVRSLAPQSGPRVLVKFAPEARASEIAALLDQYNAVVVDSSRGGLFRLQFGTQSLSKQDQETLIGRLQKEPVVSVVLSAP	label 0
AS27_1331 (protein) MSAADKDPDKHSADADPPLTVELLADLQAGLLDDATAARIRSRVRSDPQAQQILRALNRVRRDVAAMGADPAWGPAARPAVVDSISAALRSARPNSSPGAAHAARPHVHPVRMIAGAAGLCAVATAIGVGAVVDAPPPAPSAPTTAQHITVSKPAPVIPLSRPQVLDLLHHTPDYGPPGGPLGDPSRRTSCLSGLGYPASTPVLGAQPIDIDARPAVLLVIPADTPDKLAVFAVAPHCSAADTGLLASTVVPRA	label 1
AS02_915 (protein) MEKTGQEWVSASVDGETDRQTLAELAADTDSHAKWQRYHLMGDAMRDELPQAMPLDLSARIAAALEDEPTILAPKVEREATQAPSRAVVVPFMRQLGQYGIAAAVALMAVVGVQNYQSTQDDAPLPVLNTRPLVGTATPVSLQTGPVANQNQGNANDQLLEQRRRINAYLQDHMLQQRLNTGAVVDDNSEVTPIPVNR	label 0

Then there is this binder:
Query string: hey, is fold repression for AS03_1198 (protein) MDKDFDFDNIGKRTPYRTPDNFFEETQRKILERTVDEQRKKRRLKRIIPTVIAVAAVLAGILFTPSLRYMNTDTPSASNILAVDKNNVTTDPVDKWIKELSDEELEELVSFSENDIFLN lower than 3 or not?
Result string: label 1
